This collection of values is drawn from PubChem BioAssay (NCI).

# Test system: UO-31 renal
# Assay explanation: NCI-60 one-dose screen, 48 h
# Experimental parameters: 10 µM unless noted
This is part of a sample that, as a whole, favours compounds with a hit. Of some 83,000 tested, about 20% had one in any assay. The source made the active and inactive calls. The calls were made as follows: active = growth percent below 10; inactive = the rest.
Classes used: active, inactive

- CC[C@](O)(C(=O)O)c1cc2n(c(=O)c1CO)Cc1cc3ccccc3nc1-2: active
- CC[C@@]1(O)C[C@H](OC2CC(N(C)C)C(OC3CC(O)C(OC4CCC(=O)C(C)O4)C(C)O3)C(C)O2)c2c(cc3c(c2O)C(=O)c2c(O)ccc(O)c2C3=O)[C@H]1C(=O)OC (stereo partly drawn): active
- C[C@H]1CCC/C=C/[C@@H]2C[C@H](O)C[C@H]2[C@H](O)/C=C/C(=O)O1: active
- Cc1cc(N=Nc2ccccc2C)ccc1N: inactive
- Cc1c(N)nc([C@H](CC(N)=O)NC[C@H](N)C(N)=O)nc1C(=O)N[C@H](C(=O)N[C@H](C)[C@@H](O)[C@H](C)C(=O)N[C@H](C(=O)NCCc1nc(-c2nc(C(=O)NCCC[S+](C)C)cs2)cs1)[C@@H](C)O)C(OC1OC(CO)C(O)C(O)C1OC1OC(CO)C(O)C(OC(N)=O)C1O)c1cnc[nH]1 (stereo partly drawn): inactive
- Oc1cc[c]([Hg][Cl])cc1: inactive
- CC1=C(CO)C2=C(C)C3(CC3)[C@@](C)(O)C(=O)C2=C1: active
- O=C1c2ccccc2C(=O)C(Cl)C1Cl (stereo not drawn): active

====

# System: HOP-62 NSCLC
# Assay explanation: NCI-60 one-dose screen, 48 h (100 = growth as untreated, 0 = no growth, -100 = all killed)
# Experimental parameters: 10 µM unless noted
About 83,000 compounds went through this panel and 20% of them were active in at least one assay; those are over-represented in the sample as a whole.
# growth values compiled below
Property measured: growth (%)

- CC[C@@]1(O)C[C@H](OC2CC(N(C)C)C(O)C(C)O2)c2c(O)c3c(c(O)c2[C@H]1OC1CC(N(C)C)C(O)C(C)O1)C(=O)c1cccc(O)c1C3=O (stereo partly specified): -20.2
- CC1=C(CO)C2=C(C)C3(CC3)[C@@](C)(O)C(=O)C2=C1: -36
- CC[C@](O)(C(=O)O)c1cc2n(c(=O)c1CO)Cc1cc3ccccc3nc1-2: 1.05
- Oc1cc[c]([Hg][Cl])cc1: 123
- Cc1ccc(C(=O)OC(C(=O)O)C(OC(=O)c2ccc(C)cc2)C(=O)O)cc1 (stereo unspecified) (tested in a mixture with another compound): 66.1
- COc1ccc(OC)c(/C=C/[N+](=O)[O-])c1: 10.5

====

Reported growth values are given for each entry in this list.
# System: HCC-2998 colon
# Assay explanation: NCI-60 one-dose screen, 48 h (100 = growth as untreated, 0 = no growth, -100 = all killed)
# Experimental parameters: 10 µM unless noted
# Description: Growth inhibition of the HCC-2998 human tumor cell line is measured as a screen for anti-cancer activity. Cells are grown in 96 well plates and exposed to the test compound for 48 hours. Compounds are tested at a single concentration, which is 10^-5 M for most compounds. The reported endpoint is percent growth (GI% or GIPRCNT), where numbers from 0 - 100% represent growth inhibition, and numbers from -100% - 0 represent cell death. For example, a value of 40 represents 60% growth inhibition. […]
Compounds without any hit were thinned out: in the full panel of roughly 83,000, 20% have a hit.
Property measured: growth (%)

* CC1=C2C(=O)[C@H]3[C@@H](CC=C4C[C@@H](O)CC[C@@]43C)[C@@H]2CC[C@]12O[C@@H]1C[C@H](C)CN[C@H]1[C@H]2C | 141
* CCC(=O)OC1CCn2c1nc1c2C(=O)C(C)=C(N2CC2)C1=O (stereo not given) | -52.9
* CO[C@H](/C(C)=C/C=C/C(C)=C/c1coc(C)n1)[C@H](C)[C@H]1C[C@@H](O)[C@@]2(C)O[C@H]2/C=C/[C@@H](C)[C@@H]2C[C@@H](CC(=O)O2)C[C@H]2O[C@@H]2C(=O)O1 | -25.4
* CC1=C(CO)C2=C(C)C3(CC3)[C@@](C)(O)C(=O)C2=C1 | -76.7
* CCCCCCCCCCCC1CCCC(C)N1 (stereo not given) | -72.4
